system.tested: mouse HER2 (23-653) (Mus musculus, UniProt P70424)
protocol.text: Surface plasmon resonance (SPR) for assessment of peptide affinity, mouse HER2
Assay type: binding
Design: mouse HER2 (23-653) using a Cy5 labeled peptide as a probe; made in house
test.settings: SPR, mouse HER2 extracellular domain, 25° C., 1:1 binding model; read-out: moHER2-SPR-ONC KD
Starred links: 1 amine or outer side, 2 acyl side, 3 side chain; linkers in the order of their positions; H or OH if unused. Positions of bridges follow the written chain, without caps; N, C: chain ends. Non-standard residues stand in square brackets, D forms with d. Residues, ends and D or L forms follow the SMILES beside them. Trp(5-OH) = N[C@@H](Cc1c[nH]c2ccc(O)cc12)C(=O)O; NMePhe(4-F) = CN[C@@H](Cc1ccc(F)cc1)C(=O)O; Lys(N3) = [N-]=[N+]=NCCCC[C@H](N)C(=O)O; isoSer(2S) = O=C([C@@H](O)CN[*:1])[*:2]; NMehPhe = CN[C@@H](CCc1ccccc1)C(=O)O; NMeAoc(2) = CCCCCC[C@H](NC)C(=O)O; NMeE = CN[C@@H](CCC(=O)O)C(=O)O; Aad = N[C@@H](CCCC(=O)O)C(=O)O; Gly(cPr) = N[C@H](C(=O)O)C1CC1; Aoc(2) = CCCCCC[C@H](N)C(=O)O; NMeK = CN[C@@H](CCCCN)C(=O)O; NMeDap = CN[C@@H](CN)C(=O)O
assay.metric: Kd (nM)

{"compound": "CC(=O)NCCCC[C@H]1C(=O)N[C@@H](Cc2c[nH]c3ccc(O)cc23)C(=O)N[C@@H](Cc2c[nH]c3ccccc23)C(=O)N[C@@H]([C@H](C)O)C(=O)N(C)[C@H](C(=O)N(C)[C@@H](Cc2ccc(F)cc2)C(=O)N[C@@H](CCCCNC(=O)N2CCN(CC(=O)O)CC2)C(=O)N[C@@H](CCCCNC(=O)CN2CCN(CC(=O)O)CCN(CC(=O)O)CCN(CC(=O)O)CC2)C(N)=O)CNC(=O)CC[C@H](NC(C)=O)C(=O)N[C@@H](Cc2ccc(O)cc2)C(=O)N[C@@H](CO)C(=O)N(C)[C@@H](CCc2ccccc2)C(=O)N1C", "system.tested": "mouse HER2 (23-653) (Mus musculus, UniProt P70424)", "unit.tag": "nM", "modifier.sign": "=", "test.value": 9.3}
{"compound": "CCCCCC[C@@H](C(N)=O)N(C)C(=O)[C@@H]1CNC(=O)CCC[C@H](NC(C)=O)C(=O)N[C@@H](Cc2ccc(O)cc2)C(=O)N[C@@H](CO)C(=O)N(C)[C@@H](CCc2ccccc2)C(=O)N(C)[C@@H](CCCCNC(C)=O)C(=O)N[C@@H](Cc2c[nH]c3ccc(O)cc23)C(=O)N[C@@H](Cc2c[nH]c3ccccc23)C(=O)N[C@@H](C2CC2)C(=O)N1C [Example A13] (Ac-[Aad]YS[NMehPhe][NMeK](Ac)[Trp(5-OH)]W[Gly(cPr)][NMeDap][NMeAoc(2)]-NH2; lactam 1-9)", "system.tested": "mouse HER2 (23-653) (Mus musculus, UniProt P70424)", "unit.tag": "nM", "modifier.sign": "=", "test.value": 44}
{"compound": "CC(=O)NCCCC[C@H]1C(=O)N[C@@H](Cc2c[nH]c3ccc(O)cc23)C(=O)N[C@@H](Cc2c[nH]c3ccccc23)C(=O)N[C@@H](C2CC2)C(=O)N(C)[C@H](C(=O)N(C)[C@@H](Cc2ccc(F)cc2)C(=O)N[C@@H](CCCCNC(=O)CCC(C(=O)O)N2CCN(CC(=O)O)CCN(CC(=O)O)CC2)C(N)=O)CNC(=O)CCC[C@H](NC(C)=O)C(=O)N[C@@H](Cc2ccc(O)cc2)C(=O)N[C@@H](CO)C(=O)N(C)[C@@H](CCc2ccccc2)C(=O)N1C (single isomer, unassigned) [Example C35]", "system.tested": "mouse HER2 (23-653) (Mus musculus, UniProt P70424)", "unit.tag": "nM", "modifier.sign": "<", "test.value": 0.1}
{"compound": "CCCCCC[C@@H]1NC(=O)[C@H](Cc2c[nH]c3ccc(O)cc23)NC(=O)[C@H](CCCCNC(C)=O)N(C)C(=O)[C@H](CCc2ccccc2)N(C)C(=O)[C@H](CO)NC(=O)[C@H](Cc2ccc(O)cc2)NC(=O)[C@@H](NC(C)=O)CCCC(=O)NC[C@@H](C(=O)N(C)[C@@H](Cc2ccc(F)cc2)C(N)=O)N(C)C(=O)[C@H](C2CC2)NC1=O [Example A18] (Ac-[Aad]YS[NMehPhe][NMeK](Ac)[Trp(5-OH)][Aoc(2)][Gly(cPr)][NMeDap][NMePhe(4-F)]-NH2; lactam 1-9)", "system.tested": "mouse HER2 (23-653) (Mus musculus, UniProt P70424)", "unit.tag": "nM", "modifier.sign": ">", "test.value": 6000}
{"compound": "CC(=O)NCCCC[C@H]1C(=O)N[C@@H](Cc2c[nH]c3ccc(O)cc23)C(=O)N[C@@H](Cc2c[nH]c3ccccc23)C(=O)N[C@@H](C2CC2)C(=O)N(C)[C@H](C(=O)N(C)[C@@H](Cc2ccc(F)cc2)C(=O)N[C@@H](CCCCN=[N+]=[N-])C(N)=O)CNC(=O)CCC[C@H](NC(C)=O)C(=O)N[C@@H](Cc2ccc(O)cc2)C(=O)N[C@@H](CO)C(=O)N(C)[C@@H](CCc2ccccc2)C(=O)N1C [Example A74] (Ac-[Aad]YS[NMehPhe][NMeK](Ac)[Trp(5-OH)]W[Gly(cPr)][NMeDap][NMePhe(4-F)][Lys(N3)]-NH2; lactam 1-9)", "system.tested": "mouse HER2 (23-653) (Mus musculus, UniProt P70424)", "unit.tag": "nM", "modifier.sign": "=", "test.value": 0.1}
{"compound": "CC(=O)NCCCC[C@H]1C(=O)N[C@@H](Cc2c[nH]c3ccc(O)cc23)C(=O)N[C@@H](Cc2c[nH]c3ccccc23)C(=O)N[C@@H](C2CC2)C(=O)N(C)[C@H](C(=O)N(C)[C@@H](Cc2ccc(F)cc2)C(N)=O)CCC(=O)NC[C@H](O)C(=O)N[C@@H](Cc2ccc(O)cc2)C(=O)N[C@@H](CO)C(=O)N(C)[C@@H](CCc2ccccc2)C(=O)N1C [Example A23] ([isoSer(2S)]YS[NMehPhe][NMeK](Ac)[Trp(5-OH)]W[Gly(cPr)][NMeE][NMePhe(4-F)]-NH2; lactam N-9)", "system.tested": "mouse HER2 (23-653) (Mus musculus, UniProt P70424)", "unit.tag": "nM", "modifier.sign": "=", "test.value": 2.7}
{"compound": "CC(=O)NCCCC[C@H]1C(=O)N[C@@H](Cc2c[nH]c3ccc(O)cc23)C(=O)N[C@@H](Cc2c[nH]c3ccccc23)C(=O)N[C@@H](C2CC2)C(=O)N(C)[C@H](C(=O)N(C)[C@@H](Cc2ccc(F)cc2)C(=O)N[C@@H](CCCCNC(=O)CN2CCN(CC(=O)O)CCN(CC(=O)O)CCN(CC(=O)O)CC2)C(N)=O)CNC(=O)CCC[C@H](NC(=O)CCC(=O)O)C(=O)N[C@@H](Cc2ccc(O)cc2)C(=O)N[C@@H](CO)C(=O)N(C)[C@@H](CCc2ccccc2)C(=O)N1C", "system.tested": "mouse HER2 (23-653) (Mus musculus, UniProt P70424)", "unit.tag": "nM", "modifier.sign": "<", "test.value": 0.1}
{"compound": "CCCCCC[C@H]1C(=O)N(C)[C@@H](CCCCNC(C)=O)C(=O)N[C@@H](Cc2c[nH]c3ccc(O)cc23)C(=O)N[C@@H](Cc2c[nH]c3ccccc23)C(=O)N[C@@H](C2CC2)C(=O)N(C)[C@H](C(=O)N(C)[C@@H](Cc2ccc(F)cc2)C(N)=O)CNC(=O)CCC[C@H](NC(C)=O)C(=O)N[C@@H](Cc2ccc(O)cc2)C(=O)N[C@@H](CO)C(=O)N1C [Example A20] (Ac-[Aad]YS[NMeAoc(2)][NMeK](Ac)[Trp(5-OH)]W[Gly(cPr)][NMeDap][NMePhe(4-F)]-NH2; lactam 1-9)", "system.tested": "mouse HER2 (23-653) (Mus musculus, UniProt P70424)", "unit.tag": "nM", "modifier.sign": "=", "test.value": 2.5}
